Measured protein stability index by item
B1: SMOC2 (parent)
chain: DCAGSPQKPLCASDGRTFLSRCEF

variants of: B1; assay: protein stability index of a GFP-peptide fusion (GPS, HEK-293T) (PSI 1-6); higher = more stable; settings: c terminus: a fixed tail appended;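 note: lentivirally expressed fusions sorted by FACS into six bins by GFP to DsRed ratio, PSI derived from sequencing read proportions per bin multiplied by bin number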
Reply: number alone, nothing else.

// below: answered variants
Tell me measured protein stability index for S13R please.
2.34

Tell me measured protein stability index for L10Y please.
2.47

Tell me measured protein stability index for G4P please.
2.56

Tell me measured protein stability index for E23L please.
4.25

Tell me measured protein stability index for D14M please.
2

New cases:
Tell me measured protein stability index for P6F please.
1.76

Tell me measured protein stability index for P6C please.
2.14

Tell me measured protein stability index for F18S please.
3.83

Tell me measured protein stability index for S20W please.
3.01

Tell me measured protein stability index for C11K please.
2.72

Tell me measured protein stability index for F18Q please.
3.89

Taken from the supplement of paper PMC10567573.
